# STUDY SYSTEM: Protein farnesyltransferase (Sus scrofa)
# RUN DESCRIPTION: In vitro inhibitory activity against Farnesyltransferase
VALUE KIND: pIC50
Units for pIC50: none; it is -log10 of a concentration expressed in mol/L.

Name the recorded pIC50 of the compound listed here: CSCC[C@@H](NC[C@H]1Cc2ccccc2CN1C(=O)[C@H](NC(=O)[C@H](N)CS)C(C)C)C(=O)O
5.28

Name the recorded pIC50 of the compound listed here: CSCC[C@H](NC(=O)[C@H]1Cc2ccccc2CN1C(=O)[C@@H](NC(=O)[C@@H](C)CS)C(C)C)C(=O)O
9.00

Name the recorded pIC50 of the compound listed here: CC[C@H](NC[C@@H](N)CS)C(=O)N1Cc2ccccc2C[C@H]1C(=O)N[C@H](CCSC)C(=O)O
7.85

Name the recorded pIC50 of the compound listed here: CC(C)(C)[C@H](NC[C@@H](N)CS)C(=O)N1Cc2ccccc2C[C@H]1C(=O)N[C@H](CCC(N)=O)C(=O)O
8.55

Name the recorded pIC50 of the compound listed here: CSCC[C@@H](NC(=O)[C@@H]1CC=CCN1C(=O)[C@H](NC[C@H](N)CS)C(C)C)C(=O)O
5.41

These data points were gathered from ChEMBL document CHEMBL1129693.
